These data points were gathered from ChEMBL document CHEMBL1201862.

Tested on: MDA-MB-435
Experiment: NCI tumour cell line growth inhibition, 48 h
Calls of active or inactive are those of the source. No stated cut-off is given here; in the data, active = GI50 up to about 1.1 µM and inactive = higher.
Pick one: y = active, n = inactive

- Molecule: "CC1=NN(C(=O)CC(=O)NC(=O)/C=C\\c2ccccc2)C(=O)C1/N=N/c1ccc([N+](=O)[O-])cc1 (centres undefined)"
  Qualitative Label: "n"
- Molecule: "CN(C)[C@H]1CC[C@H]2[C@@H]3CCC4C[C@@H](NC(=O)NC(Cc5ccccc5)c5nccs5)CC[C@]4(C)[C@H]3CC[C@]12C (some centres undefined)"
  Qualitative Label: "y"
- Molecule: "O=C(O)c1c(CC(Cc2ccc3c(c2)CCCC3)C(=O)O)ccc2c1CCCC2 (centres undefined)"
  Qualitative Label: "n"
- Molecule: "CC(O)CCCCC(O)CCC[C@H](O)[C@H]1CCC([C@H]2CCC([C@@H](O)CCCCCCCCCCCCC3=C[C@H](C)OC3=O)O2)O1 (some centres undefined)"
  Qualitative Label: "n"
- Molecule: "CC(C)(C)OC/C=C(\\Br)CO"
  Qualitative Label: "n"

Check the results log: what was the call for CCN1CCCCC(=N\O)/C(=N/O)CCCC1 ?
n
